- targetOrTestSystem: Ataxin-2 (Homo sapiens)
- testMethodNotes: qHTS for Inhibitors of ATXN expression.
- Type: functional
Among all 400,000 compounds or so, about 2,100 (0.53%) were called active. About 14% were inconclusive and are not listed. No rule for the calls is given here. This is one part of a sample in which actives are shown more often than they occur.
Possible outcomes: 1 for active, 0 for inactive

- CCOC(=O)C1C(=O)C=C(c2ccc(NS(C)(=O)=O)cc2)CC1c1ccco1 (stereo unspecified): 0
- O=C(CN1C(=O)COc2ccc(S(=O)(=O)NC3CCCC3)cc21)Nc1ccc(Cl)cc1: 1
- O=S(=O)(Nc1ccc(Cl)cc1)c1ccc(N2CCOCC2)c(NC(=S)NC2CC2)c1: 0
- CN(C)C(=O)COc1ccc2c(-c3ccccc3)cc(=O)oc2c1: 0
- N#CCC(=O)Nc1ccc(C(=O)NNC(=O)c2ccccc2-n2cccc2)cc1: 0
- O=C1N=C(Nc2nc3ccccc3[nH]2)c2ccccc21: 0

----------
- targetOrTestSystem: Ataxin-2 (Homo sapiens)
- testMethodNotes: qHTS for Inhibitors of ATXN expression.
- Format: functional
Among all 400,000 compounds or so, about 2,100 (0.53%) were called active. About 14% were inconclusive and are not listed. No rule for the calls is given here. What follows is part of a selection rich in actives, with near analogues and random picks from the rest.
Outcomes: 1 (yes) = active, 0 (no) = inactive

* Cc1ccc2oc(=O)c3cnn(CC(=O)Nc4ccccc4N4CCN(C)CC4)c3c2c1 | 1 (yes)
* O=C(Nc1cccc(Br)c1)C1CCCC1 | 0 (no)
* CCOc1ccccc1C(=O)N(Cc1ccccc1)Cc1cc2cc3c(cc2nc1O)OCCO3 | 1 (yes)
* O=C(CN1CCN(c2ccccc2)CC1)Nc1scc2c1c(=O)oc1ccccc12 | 0 (no)

----------
- targetOrTestSystem: Ataxin-2 (Homo sapiens)
- testMethodNotes: qHTS for Inhibitors of ATXN expression.
- Assay type: functional
Among all 400,000 compounds or so, about 2,100 (0.53%) were called active. About 14% were inconclusive and are not listed. The rule behind the calls is not given here. This is one part of a sample in which actives are shown more often than they occur.
Possible outcomes: active, inactive

- CCN1C(N(C)CCc2c[nH]c3ccccc23)=N[C@@H](c2cccc(C(F)(F)F)c2)C(C(=O)OC)=C1C: active
- Cc1nn(Cc2ccccc2)c(C)c1/C=N/NC(=O)CNc1cccc(C(F)(F)F)c1: inactive
- CSC1=N/C(=C/c2cccnc2)C(=O)N1Cc1ccccc1: inactive
- O=c1cc(-c2ccccc2)c2ccc(O)cc2o1: inactive
- COCCSc1ccccc1C(=O)N1CCc2ccccc21: inactive
- Cc1ccc(C2OC34CCCCCC3C(C#N)(C(=N)O4)C2(C#N)C#N)cc1 (centres undefined): inactive
- COc1cccc(C(=O)Nc2cccc(-c3ccc(N4CCOCC4)nn3)c2)c1OC: inactive
- CN1C=CC(=C[N+](=O)[O-])N(C)C1=O: active
- CCC1C/C(=C\c2cccnc2)C(=O)/C(=C/c2cccnc2)C1 (centres undefined): active
- CC1CCc2nc(/C(C#N)=C/c3cccnc3)sc2C1 (centres undefined): inactive
- O=C(Nc1ccc(Cl)cc1)c1cnn2c1NC(c1ccccc1)=CC2c1ccccc1 (centres undefined): inactive
- Cc1ccc(S(=O)(=O)NC(C)C(=O)OCC(=O)Nc2sccc2C(N)=O)cc1 (centres undefined): inactive
- CC(C)OC(=O)c1cc(NC(=S)Nc2ccc([N+](=O)[O-])cc2)cc(C(=O)OC(C)C)c1: active
- COc1cccc(C=O)c1OCCCOc1cccc2cccnc12: active
- COc1ccc(F)cc1S(=O)(=O)Nc1cccc(-c2ccc(N3CCCCCC3)nn2)c1: active
- CCCNC(=O)/C=C/C(=O)O: inactive
- CC1C/C(=C/c2ccccn2)C(=O)/C(=C/c2ccccn2)C1 (centres undefined): active
- Cc1cccc(NS(=O)(=O)c2ccc3nc(O)cc(C(=O)OC(C)C(=O)Nc4ccc([N+](=O)[O-])cc4)c3c2)c1 (centres undefined): inactive
- CCOC(=O)c1sc(-c2cccc(C(F)(F)F)c2)nc1O: inactive

----------
- targetOrTestSystem: Ataxin-2 (Homo sapiens) (UniProt Q99700)
- Sequence (Q99700 whole entry): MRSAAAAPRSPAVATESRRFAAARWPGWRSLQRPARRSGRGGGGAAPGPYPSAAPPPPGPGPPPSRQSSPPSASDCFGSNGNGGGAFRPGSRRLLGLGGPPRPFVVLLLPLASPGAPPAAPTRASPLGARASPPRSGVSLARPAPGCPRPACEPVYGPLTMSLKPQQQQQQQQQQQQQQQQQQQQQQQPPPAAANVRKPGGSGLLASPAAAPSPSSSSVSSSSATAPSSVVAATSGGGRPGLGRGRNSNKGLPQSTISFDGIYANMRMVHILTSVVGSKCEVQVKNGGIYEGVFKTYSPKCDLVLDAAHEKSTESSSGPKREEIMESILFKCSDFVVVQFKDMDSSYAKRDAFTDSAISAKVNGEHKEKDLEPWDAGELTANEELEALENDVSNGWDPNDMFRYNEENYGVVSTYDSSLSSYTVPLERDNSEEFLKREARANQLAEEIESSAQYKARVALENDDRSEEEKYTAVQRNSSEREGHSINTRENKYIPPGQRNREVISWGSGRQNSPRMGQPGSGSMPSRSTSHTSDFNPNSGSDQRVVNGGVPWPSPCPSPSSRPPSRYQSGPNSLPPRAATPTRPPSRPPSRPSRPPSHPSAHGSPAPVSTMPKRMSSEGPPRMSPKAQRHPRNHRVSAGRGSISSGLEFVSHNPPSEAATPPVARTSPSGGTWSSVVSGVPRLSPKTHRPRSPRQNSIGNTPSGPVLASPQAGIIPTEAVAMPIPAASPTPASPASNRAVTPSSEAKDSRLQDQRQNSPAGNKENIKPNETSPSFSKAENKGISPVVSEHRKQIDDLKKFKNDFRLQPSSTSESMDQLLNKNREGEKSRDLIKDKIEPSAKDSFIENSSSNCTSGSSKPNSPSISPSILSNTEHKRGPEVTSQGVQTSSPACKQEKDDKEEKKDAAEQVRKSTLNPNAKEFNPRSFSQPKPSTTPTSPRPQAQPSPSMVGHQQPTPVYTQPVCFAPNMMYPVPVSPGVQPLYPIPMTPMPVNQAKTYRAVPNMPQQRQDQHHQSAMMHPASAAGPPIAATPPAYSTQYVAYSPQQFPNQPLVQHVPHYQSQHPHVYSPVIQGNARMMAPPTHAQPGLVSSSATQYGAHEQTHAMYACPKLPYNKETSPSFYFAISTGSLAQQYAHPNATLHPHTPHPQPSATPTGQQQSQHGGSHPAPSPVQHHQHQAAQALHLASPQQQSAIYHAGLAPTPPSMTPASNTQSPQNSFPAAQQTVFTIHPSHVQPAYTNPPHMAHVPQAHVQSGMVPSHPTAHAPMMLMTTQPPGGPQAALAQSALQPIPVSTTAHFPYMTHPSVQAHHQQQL
- testMethodNotes: qHTS for Inhibitors of ATXN expression.
- Assay type: functional
About 2,100 (0.53%) of roughly 400,000 compounds were called active. Another 14% or so got no clear call; they are omitted. How the calls were made is not given here. Only a selection was taken, and actives are over-represented in it overall.
Possible outcomes: t = active, f = inactive

* O=C1/C(=C\c2cccc(O)c2O)SC(=S)N1Cc1ccccc1 | t
* COc1ccc2nc3ccccc3[n+]([O-])c2c1 | f
* CC(=O)Nc1cccc(-c2csc(Nc3cc(C)ccn3)n2)c1 | t
* NS(=O)(=O)c1ccc(CCN2C(=O)/C(=C\c3ccc(Cl)cc3)SC2=S)cc1 | t

----------
- targetOrTestSystem: Ataxin-2 (Homo sapiens) (UniProt Q99700)
- testMethodNotes: qHTS for Inhibitors of ATXN expression.
- Format: functional
The campaign covered roughly 400,000 compounds. About 2,100 (0.53%) were called active. About 14% were inconclusive and are not listed. No rule for the calls is given here. For the sample, actives were picked, then their nearest neighbours and some compounds at random.
Possible outcomes: TRUE for active, FALSE for inactive

• CCc1c(C)c2cc(Cl)c(O)c(CN3CCCC3)c2oc1=O = FALSE
• O=C(CSc1cccc[n+]1[O-])c1cc(Cl)ccc1Cl = TRUE
• Cc1ccc(S(=O)(=O)NCc2c(-c3ccccc3)noc2C)cc1 = FALSE
• Cc1ccc(N(C)C(CNS(=O)(=O)c2ccccc2)c2ccccc2)cc1 (configuration not stated) = TRUE
• Cc1ccc(-c2nnc(Nc3ccc4c(c3)OCO4)c3ccccc23)cc1S(=O)(=O)NC(C)C = FALSE
• CCC[C@@H](CNC)NC[C@H](Cc1ccccc1)NCCCCc1ccccc1 = TRUE
• O=C1Nc2ccc(S(=O)(=O)NCC3CCCO3)c3cccc1c23 (configuration not stated) = FALSE

----------
- targetOrTestSystem: Ataxin-2 (Homo sapiens) (UniProt Q99700)
- testMethodNotes: qHTS for Inhibitors of ATXN expression.
- Type: functional
The whole screen tested about 400,000 compounds, of which about 2,100 (0.53%) were called active. Another 14% or so got no clear call; they are omitted. The rule behind the calls is not given here. Shown is part of a subset that was picked to be rich in actives.
Outcomes: true (active), false (inactive)

• CN1CCN(c2ccc(NC(=O)c3ccc(-c4ccc(Cl)cc4)o3)cc2)CC1 = true
• c1ccc(COc2ccccc2CNC23CC4CC(CC(C4)C2)C3)cc1 = true
• CCCCN1C(=O)c2cccc3cc(O)cc(c23)C1=O = false
• CC(=O)N1CCN(c2ccc(NC(=O)c3cccc(F)c3)cc2)CC1 = false
• N#Cc1c(O)nc2c(c1-c1cccnc1)COc1ccccc1-2 = false
• O=C1c2cccc3cccc(c23)N1Cc1ccc(F)cc1 = false
• Clc1cccc2sc(N3CCN(c4ccccc4)CC3)nc12 = false
• Cn1c(-c2c(N)n(CCCc3ccccc3)c3nc4ccccc4nc23)nc2ccccc21 = false
• Cc1ccc(CCNC(=O)c2cc(S(=O)(=O)N3CCOCC3)cn2C)cc1 = false
• CCc1cc2c(CN3CCN(C)CC3)cc(=O)oc2cc1O = false
• CCOc1ccc(CCN2C(=O)C(=O)N([C@@H](CC(C)C)CN3CCC[C@@H]3CN3C(=O)C(=O)NC[C@@H]3CC(C)C)C[C@@H]2Cc2ccccc2)cc1 = true
• NC(=O)C1(N2CCCCC2)CCN(C(=O)c2cc(COc3c(F)cccc3F)on2)CC1 = false
• CCCCn1c(N)c(N(CC)C(=O)c2cc(OC)cc(OC)c2)c(=O)[nH]c1=O = false
• CCCCN(C(=O)c1ccc2ccccc2c1)c1c(N)n(CCCC)c(=O)[nH]c1=O = false
• CC(=O)/N=c1\c(C#N)cc2c(=O)n3ccccc3nc2n1CCCOC(C)C = false

----------
- targetOrTestSystem: Ataxin-2 (Homo sapiens)
- testMethodNotes: qHTS for Inhibitors of ATXN expression.
- Format: functional
The whole screen tested about 400,000 compounds, of which about 2,100 (0.53%) were called active. Inconclusive results (about 14%) are left out. The rule behind the calls is not given here. For the sample, actives were picked, then their nearest neighbours and some compounds at random.
Labels: T (active), F (inactive)

* COC(=O)CS(=O)(=O)c1nnc([C@H](Cc2ccccc2)NC(=O)OC(C)(C)C)o1 | T
* O=S(=O)(c1ccc(F)cc1)N(CC(O)Cn1c2ccccc2c2ccccc21)c1ccccc1 (centres undefined) | T
* CCc1nc2ccc(C(=O)Nc3nnc(C)s3)cc2nc1CC | F
* COc1ccc2nc(Nc3ccccc3)sc2c1 | F
* COc1cccc(C2C3=C(O)CC(C)(C)CC3=NC(C)=C2C(=O)Nc2nc3ccccc3s2)c1OC (centres undefined) | F
* COc1cccc(/C=C/c2nc(C#N)c(NC3CCCCC3)o2)c1 | F
* Cc1ccc2cc(CN(Cc3ccc(F)cc3)Cc3nnnn3C3CCCC3)c(O)nc2c1 | T
* CN(C)c1ccc(N=Nc2ccccc2C(=O)OCC(=O)NC2CCCC2)cc1 | T
* Cc1ccc2nc3c(cc(C(=O)NCC4CCCO4)c(=N)n3CCCOC(C)C)c(=O)n2c1 (centres undefined) | F
